- Target entity: recombinant human SYK360-635 (Homo sapiens)
- Construct: made in house
- Assay protocol: Determination of IC50 of Spleen Tyrosine Kinase (SYK) inhibition, 33P ATP filtration assay
- Assay type: biochemical
- Condition: SYK aa 360-635 0.5 nM; ATP 20 μM, peptide 5 μM, 0.1% BSA; read-out: SYK_ENZYME_FILTRATION/v1, BSA
Assay readout: IC50 (µM)

# count of solved cases: 2
INSERT INTO assay_data (molecule, assay_readout, u, result) VALUES
  ('Cn1nc(-c2cnc3[nH]cc(C(=O)NC4CCCCC4)c3n2)c2ccc(Cl)cc21 [Example I-110]', 'IC50', 'µM', 0.249),
  ('COC[C@H](C)NC(=O)c1c[nH]c2ncc(-n3cnc4cc(Cl)ccc43)nc12 [Example I-223]', 'IC50', 'µM', 0.416);

[a] CC(C)NC(=O)c1c[nH]c2ncc(-c3nn(C)c4c3CCC(C)(C)C4)nc12 [Example I-279]
[b] Cn1nc(-c2cnc3[nH]cc(C(=O)N[C@@H]4CCC[C@H](O)C4)c3n2)c2ccc(Cl)cc21 (relative stereo) [Example I-149]
[c] Cn1nc(-c2cnc3[nH]cc(C(=O)NCC(C)(C)CO)c3n2)c2ccc(F)cc21 [Example I-114]
[d] CC(Cc1ccccn1)NC(=O)c1c[nH]c2ncc(-c3nn(CCN4CCCC4)c4cc(F)ccc34)nc12 (stereo not shown) [Example I-250]
[e] CC(C)(C)NC(=O)c1c[nH]c2ncc(-c3nn(Cc4cccnc4)c4ccc(OC(F)F)cc34)nc12 [Example I-264]
(Q) Order each entry by recorded IC50, climbing from the minimum. Form entry: labels listed in requested order.
(A) e, c, b, a, d

====

- Target entity: JAK3: Recombinant human kinase domain (Homo sapiens, UniProt P52333)
- Construct: JAK3: Recombinant human kinase domain from Millipore (Cat #14-629) or prepared
- Sequence (P52333 822-1111 limits assumed): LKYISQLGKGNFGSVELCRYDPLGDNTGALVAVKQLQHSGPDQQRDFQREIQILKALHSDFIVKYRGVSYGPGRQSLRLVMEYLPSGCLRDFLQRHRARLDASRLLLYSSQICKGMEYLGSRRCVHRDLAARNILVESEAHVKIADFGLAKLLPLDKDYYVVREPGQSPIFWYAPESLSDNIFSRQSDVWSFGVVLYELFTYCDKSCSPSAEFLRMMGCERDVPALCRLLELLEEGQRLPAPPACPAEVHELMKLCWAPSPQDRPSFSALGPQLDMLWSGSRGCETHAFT
- Assay protocol: Determination of IC50 of Janus Kinase (JAK) inhibition, radioactive end-point 33P-ATP assay, JAK3
- Condition: ATP 1.5 uM, peptide 50 uM, 20 minutes, read-out: JAK3-INHIB-DR/v1~NO ADDITIVE~Enzyme_Conc = 100
Assay readout: IC50 (nM)

Example entries and their recorded answers appear below.
INSERT INTO measurements (molecule, assay_readout, result) VALUES
  ('CC(NC(=O)c1c[nH]c2ncc(-c3nn(C)c4cc(F)ccc34)nc12)[C@H]1C[C@H](O)C1 (some centres unmarked)', 'IC50', 20.6),
  ('C[C@H](O)[C@H](C)NC(=O)c1c[nH]c2ncc(-c3nn(C)c4cc(Cl)ccc34)nc12 (relative stereo)', 'IC50', 10.5),
  ('CC(C)NC(=O)c1c[nH]c2ncc(-c3nn(C)c4ccc(OC(F)F)cc34)nc12', 'IC50', 14.3),
  ('C[C@@H](NC(=O)c1c[nH]c2ncc(-c3nn(CC(O)CO)c4cc(Cl)ccc34)nc12)C(=O)N1CC(C#N)C1 (some centres unmarked)', 'IC50', 12.6),
  ('C[C@@H](NC(=O)c1c[nH]c2ncc(-c3nn(C)c4ccsc34)nc12)C(=O)N1CC(C#N)C1', 'IC50', 0.85),
  ('C[C@@H](NC(=O)c1c[nH]c2ncc(-c3nc(CO)n4cc(F)ccc34)nc12)C(=O)N1CC(C#N)C1', 'IC50', 0.33),
  ('Cn1nc(-c2cnc3[nH]cc(C(=O)NC4CCCC(=O)C4)c3n2)c2ccc(Cl)cc21 (centres unmarked)', 'IC50', 38.4),
  ('Cn1nc(-c2cnc3[nH]cc(C(=O)N[C@@H](C(=O)N4CCC(C#N)CC4)C4CC4)c3n2)c2ccc(Cl)cc21', 'IC50', 0.575);

[I] C[C@@H](NC(=O)c1c[nH]c2ncc(-c3nn(C)c4cc(Cl)c(Cl)cc34)nc12)C(=O)N1CC(C#N)C1
[II] CC(C)NC(=O)c1c[nH]c2ncc(-c3nn(CCN(C)C)c4cc(Cl)cc(F)c34)nc12
(Q) Could you point out whether the larger IC50 belongs to I or to II ? Give the chosen item's label as your response.
(A) II
(II: 13.3 nM, I: 1.23 nM)

====

- Target entity: recombinant human SYK360-635 (Homo sapiens)
- Construct: made in house
- Assay protocol: Determination of IC50 of Spleen Tyrosine Kinase (SYK) inhibition, 33P ATP filtration assay
- Format: biochemical
- Condition: SYK aa 360-635 0.5 nM; ATP 20 μM, peptide 5 μM, 0.1% BSA; read-out: SYK_ENZYME_FILTRATION/v1, BSA
pIC50: −log10 of the molar value.
Assay readout: pIC50

INSERT INTO results (compound, assay_readout, result) VALUES
  ('Cc1cc(C(C)NC(=O)c2c[nH]c3ncc(-c4nn(C)c5cc(F)ccc45)nc23)no1 (stereo not shown) [Example I-54]', 'pIC50', 7.11);

[1] Cc1ccc2c(-c3cnc4[nH]cc(C(=O)N[C@H](C)C(=O)N5CC(C#N)C5)c4n3)ncn2c1 [Example I-31]
[2] CC(C)(C)NC(=O)c1c[nH]c2ncc(-c3nn(CC4CN(Cc5ccccc5)CCO4)c4ccc(OC(F)F)cc34)nc12 (stereo not shown) [Example I-340]
[3] CN(C)C(=O)CCn1nc(-c2cnc3[nH]cc(C(=O)NC(C)(C)C)c3n2)c2cc(OC(F)F)ccc21 [Example I-339]
(Q) Order field: pIC50 | Direction: descending (largest first) Response field: labels, in requested order.
(A) 3, 1, 2

====

- Target entity: JAK3: Recombinant human kinase domain (Homo sapiens)
- Construct: JAK3: Recombinant human kinase domain from Millipore (Cat #14-629) or prepared
- Assay protocol: Determination of IC50 of Janus Kinase (JAK) inhibition, radioactive end-point 33P-ATP assay, JAK3
- Condition: ATP 1.5 uM, peptide 50 uM, 20 minutes, read-out: JAK3-INHIB-DR/v1~NO ADDITIVE~Enzyme_Conc = 100
Assay readout: IC50 (nM)

INSERT INTO assay_data (molecule, target_entity, u, result) VALUES
  ('Cn1nc(-c2cnc3[nH]cc(C(=O)NCC(C)(C)CO)c3n2)c2ccc(F)cc21', 'JAK3: Recombinant human kinase domain (Homo sapiens)', 'nM', 12.8),
  ('CC(C)NC(=O)c1c[nH]c2ncc(-c3nn(C)c4c3CCC4)nc12', 'JAK3: Recombinant human kinase domain (Homo sapiens)', 'nM', 12.7),
  ('Cn1nc(-c2cnc3[nH]cc(C(=O)NC4CCCOC4)c3n2)c2ccc(Cl)cc21 (stereo not drawn)', 'JAK3: Recombinant human kinase domain (Homo sapiens)', 'nM', 3.97),
  ('C[C@@H](NC(=O)c1c[nH]c2ncc(-c3nn(C)c4cc(F)ccc34)nc12)c1ccccn1', 'JAK3: Recombinant human kinase domain (Homo sapiens)', 'nM', 14.2),
  ('C[C@@H](NC(=O)c1c[nH]c2ncc(-c3nn(C)c4cc(Cl)ccc34)nc12)c1ccccc1', 'JAK3: Recombinant human kinase domain (Homo sapiens)', 'nM', 19.2);

[1] COC[C@@H](NC(=O)c1c[nH]c2ncc(-c3nn(C)c4cc(Cl)ccc34)nc12)C(=O)N1CC(C#N)C1
[2] CC(CC(F)(F)F)NC(=O)c1c[nH]c2ncc(-c3nn(C)c4cc(F)ccc34)nc12 (stereo not drawn)
[3] Cn1nc(-c2cnc3[nH]cc(C(=O)N[C@@H](C(=O)N4CCC(C#N)CC4)C4CC4)c3n2)c2cc(Cl)ccc21
(Q) Order the records, beginning with the lowest IC50 and ending with the highest. Ranked list of labels, please, in the requested order.
(A) 1, 3, 2

[A] C[C@@H](NC(=O)c1c[nH]c2ncc(-c3nn(C)c4cc(Cl)ccc34)nc12)C1CC1
[B] CC(C)NC(=O)c1c[nH]c2ncc(-c3nn(C)c4ccc(Oc5cccc(Cl)c5)cc34)nc12
[C] Cn1nc(-c2cnc3[nH]cc(C(=O)NC4CCC(N)C4)c3n2)c2ccc(Cl)cc21 (stereo not drawn)
[D] COC[C@H](C)NC(=O)c1c[nH]c2ncc(-c3nn(CCN4CCOCC4)c4cc(F)ccc34)nc12
[E] Cn1nc(-c2cnc3[nH]cc(C(=O)N[C@@H]4CCc5ccccc54)c3n2)c2ccc(Cl)cc21
(Q) // smallest IC50 at index 0, largest at the end List labels; respect the requested ordering.
(A) D, A, C, E, B

[1] C[C@H](NC(=O)c1c[nH]c2ncc(-c3nn(C)c4cc(F)ccc34)nc12)c1ncco1
[2] C[C@@H](NC(=O)c1c[nH]c2ncc(-c3nn(C)c4cc(F)ccc34)nc12)c1cccc(C#N)c1
[3] Cc1nc(-c2cnc3[nH]cc(C(=O)N[C@H](C)C(=O)N4CC(C#N)C4)c3n2)c2ccc(F)cn12
[4] CC(NC(=O)c1c[nH]c2ncc(-c3nn(CCN4CCOCC4)c4cc(Cl)ccc34)nc12)c1cccnc1 (stereo not drawn)
(Q) List from greatest to least IC50. Write the labels, ordered according to the request.
(A) 4, 2, 1, 3

[I] C[C@@H](NC(=O)c1c[nH]c2ncc(-c3nn(C)c4cc(F)ccc34)nc12)C1=NCCO1
[II] C[C@H](CN1CC(C#N)C1)NC(=O)c1c[nH]c2ncc(-c3nn(C)c4cc(Cl)ccc34)nc12
[III] CC(C)(C)NC(=O)c1c[nH]c2ncc(-c3ncn4cc(F)ccc34)nc12
(Q) Rank ascending by IC50. To answer, write out the labels according to the requested order.
(A) III, II, I
(III: 5.3 nM, II: 18.3 nM, I: 27.4 nM)

[a] C[C@@H](NC(=O)c1c[nH]c2ncc(-c3nn(C)c4cc(F)cc(F)c34)nc12)C(=O)N1CC(C#N)C1
[b] CC(C)NC(=O)c1c[nH]c2ncc(-c3nn(C)c4ccc(OC(F)(F)F)cc34)nc12
[c] C[C@@H](NC(=O)c1c[nH]c2ncc(-c3nn(C)c4cc(Cl)ccc34)nc12)C(=O)N1CC(F)(F)C1
[d] Cn1nc(-c2cnc3[nH]cc(C(=O)NC4CCCC4)c3n2)c2ccc(Cl)cc21
(Q) Rank order required: IC50, descending. Answer by naming the labels in the order asked.
(A) b, c, d, a

[a] Cn1nc(-c2cnc3[nH]cc(C(=O)NC(C)(C)CO)c3n2)c2cc(OC(F)F)ccc21
[b] C[C@@H](NC(=O)c1c[nH]c2ncc(-c3nn(C)c4cc(F)ccc34)nc12)[C@@H]1CCCO1
(Q) Given the listed records, identify the one among a and b with higher IC50. Refer to your chosen item by its label in the answer.
(A) a

[P] CC(C)NC(=O)c1c[nH]c2ncc(-c3nn(CCCN(C)C)c4cc(Cl)cc(F)c34)nc12 [Example I-131]
[Q] C[C@@H](NC(=O)c1c[nH]c2ncc(-c3nn(C)c4cc(Cl)ccc34)nc12)C(=O)N1CC(F)C1
[R] C[C@@H](NC(=O)c1c[nH]c2ncc(-c3nn(C)c4c3CC(C)(C)CC4)nc12)C(=O)N1CC(C#N)C1
(Q) Ascending sort, IC50. Answer format: the labels, in the requested order.
(A) Q, P, R
(Q: 2.73 nM, P: 7.06 nM, R: 31.1 nM)
